Origin of values: patent US9833520B2

Documented pIC50 across a set of molecules
- TARGET OF ASSAY: purified human αvβ3 (Homo sapiens, UniProt P05106+P06756)
- Construct: purchased Chemicon International, Temecula, Calif., USA
- MEASUREMENT NOTES: ELISA: competitive inhibition of biotinylated vitronectin binding to immobilized purified integrin αvβ3
- CONDITION NOTES: Example 1 bivalent IA study, FIG. 4; read-out: IC50 of vitronectin binding to αvβ3 (ELISA)
Bear in mind: pIC50 is minus log10 of a mol/L concentration; give just that figure.

{"columns": ["MOLECULE", "pIC50"],
 "data": [
  ["NCCS(=O)(=O)N[C@@H](CNC(=O)c1ccc(OCCNC2=NCCCN2)cc1)C(=O)O [IA]", 7.65]
]}

Ask: Notebook: pull reported pIC50 for purified human αvβ3 (Homo sapiens, UniProt P05106+P06756), entry NC(CCCCCC(=O)NCCS(=O)(=O)N[C@@H](CNC(=O)c1ccc(OCCNC2=NCCCN2)cc1)C(=O)O)C(=O)NCCS(=O)(=O)N[C@@H](CNC(=O)c1ccc(OCCNC2=NCCCN2)cc1)C(=O)O (stereo partly drawn) [bivalent IA]
Result: 9.40

Ask: Notebook: pull reported pIC50 for purified human αvβ3 (Homo sapiens, UniProt P05106+P06756), entry CC[N+]1=C(/C=C/C=C/C=C2/N(CCCCCC(=O)NC(CCCCCC(=O)NCCS(=O)(=O)N[C@@H](CNC(=O)c3ccc(OCCNC4=NCCCN4)cc3)C(=O)O)C(=O)NCCS(=O)(=O)N[C@@H](CNC(=O)c3ccc(OCCNC4=NCCCN4)cc3)C(=O)O)c3ccc4c(S(=O)(=O)O)cc(S(=O)(=O)O)cc4c3C2(C)C)C(C)(C)c2c1ccc1c(S(=O)(=O)[O-])cc(S(=O)(=O)O)cc21 (stereo partly drawn) [bivalent-IA-Cy5.5]
Result: 9.89
